The measurements presented in this section are drawn from ChEMBL document CHEMBL1125778.

Consider the following compounds and their measured inhibition readings.
Test system: Integrin alpha-IIb/beta-3 (Canis familiaris)
procedureDetails: Inhibition of canine platelet-rich plasma induced by ADP
Set-up: concentration or dose not given beside the values
conditionSet: Canis lupus familiaris, concentration not given here
Where a SMILES comes first, the peptide text is derived from it.
Note: unit % is implicit; provide only the numeric part.

As a guide, the following entries are already answered.
- compound: "CC(=O)N[C@H]1C(=O)N(C)[C@@H](CCCN=C(N)N)C(=O)NCC(=O)N[C@@H](CC(=O)O)C(=O)N[C@@H](C(N)=O)C(C)(C)SSC1(C)C"
  valueReported: 100
- compound: "CC(=O)N[C@@H]1CSSC(C)(C)[C@H](C(N)=O)NC(=O)[C@@H](CC(=O)O)NC(=O)CN(C)C(=O)[C@@H](CCCN=C(N)N)NC1=O"
  valueReported: 57
- compound: "CC(=O)N[C@@H]1CSSC(C)(C)[C@H](C(N)=O)NC(=O)[C@H](CC(=O)O)NC(=O)CNC(=O)[C@H](CCCN=C(N)N)NC(=O)CNC1=O"
  valueReported: 100
- compound: "CC(=O)N[C@@H](CCCN=C(N)N)C(=O)NCC(=O)N[C@@H](CC(=O)O)C(=O)N[C@@H](Cc1ccc(O)cc1)C(N)=O (Ac-RGDY-NH2)"
  valueReported: 98

Turning now to a further compound:
Which value of inhibition has been reported for CC(=O)N[C@@H]1CSSC[C@@H](C(N)=O)NC(=O)[C@H](CC(=O)O)NC(=O)CNC(=O)[C@H](CCCN=C(N)N)NC(=O)CNC1=O in the records?
100

----------
studyTarget: Integrin alpha-IIb/beta-3 (Homo sapiens, UniProt P05106+P08514)
Sequence (P05106 27-788 limits assumed): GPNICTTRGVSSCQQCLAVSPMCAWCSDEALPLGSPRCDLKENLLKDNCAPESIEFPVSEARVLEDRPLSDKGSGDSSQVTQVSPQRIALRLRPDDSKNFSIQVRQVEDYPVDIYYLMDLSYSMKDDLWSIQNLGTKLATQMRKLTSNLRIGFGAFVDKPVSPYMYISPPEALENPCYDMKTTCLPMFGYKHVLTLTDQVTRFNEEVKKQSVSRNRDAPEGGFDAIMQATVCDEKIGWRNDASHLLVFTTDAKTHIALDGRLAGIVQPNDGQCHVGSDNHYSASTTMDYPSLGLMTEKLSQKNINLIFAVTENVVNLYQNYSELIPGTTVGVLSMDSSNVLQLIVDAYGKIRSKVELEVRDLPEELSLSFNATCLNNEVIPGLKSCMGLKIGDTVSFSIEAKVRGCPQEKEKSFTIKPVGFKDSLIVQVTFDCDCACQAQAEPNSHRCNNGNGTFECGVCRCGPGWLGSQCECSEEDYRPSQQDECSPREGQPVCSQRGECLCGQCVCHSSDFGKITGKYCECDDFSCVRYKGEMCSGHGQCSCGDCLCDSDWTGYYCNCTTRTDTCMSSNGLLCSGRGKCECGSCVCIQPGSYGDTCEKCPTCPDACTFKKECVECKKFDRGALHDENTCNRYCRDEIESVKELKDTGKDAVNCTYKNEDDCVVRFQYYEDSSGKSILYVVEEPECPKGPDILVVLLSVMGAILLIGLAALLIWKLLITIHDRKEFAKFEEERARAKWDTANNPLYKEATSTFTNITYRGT
Sequence (P08514 32-887 limits assumed): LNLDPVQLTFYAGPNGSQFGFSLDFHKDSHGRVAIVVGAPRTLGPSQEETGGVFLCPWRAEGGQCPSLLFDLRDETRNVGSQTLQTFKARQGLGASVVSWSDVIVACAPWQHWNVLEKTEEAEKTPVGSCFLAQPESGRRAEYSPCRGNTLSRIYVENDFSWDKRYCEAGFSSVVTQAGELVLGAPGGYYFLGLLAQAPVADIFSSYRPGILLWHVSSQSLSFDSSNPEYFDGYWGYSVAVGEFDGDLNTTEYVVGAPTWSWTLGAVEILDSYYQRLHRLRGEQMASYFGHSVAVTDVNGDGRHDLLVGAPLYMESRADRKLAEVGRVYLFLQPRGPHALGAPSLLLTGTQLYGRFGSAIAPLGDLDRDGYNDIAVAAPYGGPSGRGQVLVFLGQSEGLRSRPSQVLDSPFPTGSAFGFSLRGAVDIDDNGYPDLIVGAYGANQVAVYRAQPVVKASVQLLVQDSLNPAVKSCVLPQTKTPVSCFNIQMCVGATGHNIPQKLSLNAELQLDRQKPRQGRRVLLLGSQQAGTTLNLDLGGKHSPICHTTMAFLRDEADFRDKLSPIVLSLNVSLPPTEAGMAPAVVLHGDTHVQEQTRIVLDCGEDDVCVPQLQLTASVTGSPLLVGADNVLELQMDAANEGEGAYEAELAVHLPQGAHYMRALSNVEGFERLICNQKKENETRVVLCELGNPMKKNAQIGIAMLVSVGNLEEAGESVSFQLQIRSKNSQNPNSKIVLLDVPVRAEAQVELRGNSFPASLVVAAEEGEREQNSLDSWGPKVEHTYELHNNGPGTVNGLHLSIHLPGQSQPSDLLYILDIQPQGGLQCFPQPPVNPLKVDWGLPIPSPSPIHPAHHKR
Sequence (P08514 891-1039 limits assumed): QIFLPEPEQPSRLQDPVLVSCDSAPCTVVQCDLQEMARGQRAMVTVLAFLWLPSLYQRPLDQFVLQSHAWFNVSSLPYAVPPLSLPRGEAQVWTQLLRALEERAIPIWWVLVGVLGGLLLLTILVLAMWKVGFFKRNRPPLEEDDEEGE
procedureDetails: Inhibition of 125[I] Fibrinogen binding to isolated purified human fibrinogen receptor
Format: protein-complex assay
assayReadout: pKi
pKi (log units): -log10 of the concentration in mol/L.

Param readout= pKi; system= Integrin alpha-IIb/beta-3 (Homo sapiens, UniProt P05106+P08514); entry= Ac-HHLGGAKQAGDV-OH ; returns value.
4.84

----------
Tested on: Integrin alpha-IIb/beta-3 (Canis familiaris)
procedureDetails: Inhibition of canine platelet-rich plasma induced by ADP
Set-up: concentration or dose not given beside the values
conditionSet: Canis lupus familiaris, concentration not given here
Consider the following molecules and their measured inhibition readings.
Note: unit % is implicit; provide only the numeric part.

As a guide, the following entries are already answered.
- smilesData: "CC(=O)N[C@H]1C(=O)N[C@@H](CCCN=C(N)N)C(=O)NCC(=O)N[C@@H](CC(=O)O)C(=O)N[C@H](C(N)=O)CSSC1(C)C"
  inhibition (%): 100
- smilesData: "CC(=O)N[C@@H]1CSSC[C@H](C(N)=O)NC(=O)[C@@H](CC(=O)O)NC(=O)CNC(=O)[C@@H](CCCN=C(N)N)NC1=O"
  inhibition (%): 55

Turning now to a further molecule:
Which value of inhibition has been reported for CC(=O)N[C@@H](Cc1c[nH]cn1)C(=O)N[C@@H](Cc1c[nH]cn1)C(=O)N[C@@H](CC(C)C)C(=O)NCC(=O)NCC(=O)N[C@@H](C)C(=O)N[C@@H](CCCCN)C(=O)N[C@H]1CSSC(C)(C)[C@H](C(N)=O)NC(=O)[C@H](CC(=O)O)NC(=O)CNC(=O)[C@H](CCCN=C(N)N)NC1=O in the records?
100
